Source of measurements: paper PMC12016938

assay: Pharmacokinetic studies in rats (plasma and brain); type: in vivo; details: rat, plasma, iv, 40 mg/kg, i.v. 40 mg/kg, 15min, mean all rats
readoutType: concentration at 15 min (µM)
Give your result in µM as a bare value.

Task: Please give the measured concentration at 15 min for this molecule: `N[C@H](CNC(=O)C1(c2ccc(Cl)cc2)CCCC1)c1ccc(C(=O)Nc2ccncc2)cc1`
Result: 52.6

---

assay: Pharmacokinetic studies in rats (plasma and brain); format: in vivo; settings: rat, plasma, ip, 40 mg/kg, rat, i.p. 40 mg/kg, 24h, mean all rats; read-out: Plasma concentration
readoutType: concentration at 24 h (nM)
Respond with the bare value in nM.

Task: Any idea what concentration at 24 h was measured for `N[C@H](CNC(=O)C1(c2ccc(Cl)cc2)CCCC1)c1ccc(C(=O)Nc2ccncc2)cc1` ?
Result: 498

---

test: Pharmacokinetic studies in rats (plasma and brain); format: in vivo; conditions: rat, brain, ip, 40 mg/kg, rat, i.p. 40 mg/kg, 24h, mean all rats; read-out: Brain/Plasma
readoutType: Kp at 24 h
# answer = number (no unit)

Task: Name the recorded Kp at 24 h for `N[C@H](CNC(=O)C1(c2ccc(Cl)cc2)CCCC1)c1ccc(C(=O)Nc2ccncc2)cc1` .
Result: 1.18

---

assay: Pharmacokinetic studies in rats (plasma and brain); type: in vivo; conditions: rat, plasma, ip, 40 mg/kg, rat, i.p. 40 mg/kg, 24h, individual rat; read-out: Plasma concentration
readoutType: concentration at 24 h
Units required after the number.

Task: Any idea what its concentration at 24 h is? The molecule is `N[C@H](CNC(=O)C1(c2ccc(Cl)cc2)CCCC1)c1ccc(C(=O)Nc2ccncc2)cc1`
Result: 380 nM

---

assay: Pharmacokinetic studies in rats (plasma and brain); assay type: in vivo; settings: rat, brain, ip, 40 mg/kg, rat, i.p. 40 mg/kg, 2h, mean of Plasma 2h, Brain 2h rats; read-out: Brain/Plasma
readoutType: Kp at 2 h
# output: bare number, no unit

Task: Looking for the measured Kp at 2 h of N[C@H](CNC(=O)C1(c2ccc(Cl)cc2)CCCC1)c1ccc(C(=O)Nc2ccncc2)cc1 [CP612] , can you help?
Result: 0.0312

---

assay: Pharmacokinetic studies in rats (plasma and brain); format: in vivo; settings: rat, brain, ip, 40 mg/kg, rat, i.p. 40 mg/kg, 2h, mean all rats; read-out: Brain/Plasma
readoutType: Kp at 2 h
Answer with a bare number; do not write a unit.

Task: Request the reported Kp at 2 h associated with `N[C@H](CNC(=O)C1(c2ccc(Cl)cc2)CCCC1)c1ccc(C(=O)Nc2ccncc2)cc1`
Result: 0.0312

---

target: PKCε (Homo sapiens, UniProt Q02156); assay: PKCε activity with increasing ATP and CP612 (ATP competition); conditions: without CP612; 95% CI 2.23–7.61 μM
Sequence (Q02156 whole entry): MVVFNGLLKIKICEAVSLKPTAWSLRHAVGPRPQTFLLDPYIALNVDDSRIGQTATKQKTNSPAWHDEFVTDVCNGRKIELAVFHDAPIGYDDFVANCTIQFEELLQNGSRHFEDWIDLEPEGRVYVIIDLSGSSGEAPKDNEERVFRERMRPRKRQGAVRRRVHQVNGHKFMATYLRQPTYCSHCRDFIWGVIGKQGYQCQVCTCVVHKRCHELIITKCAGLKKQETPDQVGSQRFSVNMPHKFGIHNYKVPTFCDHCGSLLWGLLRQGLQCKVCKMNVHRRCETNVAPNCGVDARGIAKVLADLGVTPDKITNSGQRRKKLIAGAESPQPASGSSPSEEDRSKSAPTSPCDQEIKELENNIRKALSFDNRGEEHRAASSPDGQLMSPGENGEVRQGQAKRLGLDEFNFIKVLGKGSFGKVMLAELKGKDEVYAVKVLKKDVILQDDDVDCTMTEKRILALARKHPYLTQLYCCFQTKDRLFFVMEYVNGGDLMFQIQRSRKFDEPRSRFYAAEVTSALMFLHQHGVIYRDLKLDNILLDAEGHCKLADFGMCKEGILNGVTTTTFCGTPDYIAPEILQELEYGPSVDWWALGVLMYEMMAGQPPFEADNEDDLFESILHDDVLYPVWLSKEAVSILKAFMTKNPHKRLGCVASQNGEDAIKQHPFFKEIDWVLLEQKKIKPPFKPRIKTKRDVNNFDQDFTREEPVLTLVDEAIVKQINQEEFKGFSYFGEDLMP
readoutType: pEC50
// pEC50: -log10(molar conc.)

Task: Look up pEC50: `Nc1ncnc2c1ncn2[C@@H]1O[C@H](COP(=O)(O)OP(=O)(O)OP(=O)(O)O)[C@@H](O)[C@H]1O`
Result: 5.38

---

test: Pharmacokinetic studies in rats (plasma and brain); assay type: in vivo; settings: rat, plasma, ip, 40 mg/kg, i.p. 40 mg/kg, 8h, individual rat
readoutType: concentration at 8 h (nM)
Kindly provide the numeric value in nM only, without the unit symbol.

Task: I have this compound here, N[C@H](CNC(=O)C1(c2ccc(Cl)cc2)CCCC1)c1ccc(C(=O)Nc2ccncc2)cc1 [CP612] , and I need its recorded concentration at 8 h.
Result: 2290

---

experiment: Pharmacokinetic studies in rats (plasma and brain); format: in vivo; conditions: rat, plasma, iv, 40 mg/kg, i.v. 40 mg/kg, 4h, individual rat
readoutType: concentration at 4 h
Hey, just the number and the unit after it is fine.

Task: So what does the record say about concentration at 4 h for N[C@H](CNC(=O)C1(c2ccc(Cl)cc2)CCCC1)c1ccc(C(=O)Nc2ccncc2)cc1 [CP612] ?
Result: 3.97 µM

---

assay: Pharmacokinetic studies in rats (plasma and brain); format: in vivo; conditions: rat, brain, ip, 40 mg/kg, rat, i.p. 40 mg/kg, 24h, individual rat; read-out: Brain concentration
readoutType: concentration at 24 h (µM)
Answer in µM, number only, no unit symbol.

Task: Need concentration at 24 h, item `N[C@H](CNC(=O)C1(c2ccc(Cl)cc2)CCCC1)c1ccc(C(=O)Nc2ccncc2)cc1`
Result: 0.609

---

Provide the reported fraction unbound at 4 h, 10 μM of each item.
assay: Plasma protein binding, equilibrium dialysis (RED); assay type: in vitro ADME, human; conditions: human, plasma, mean of replicates; read-out: % Bound, Mean (converted)
Please state the value as a number alone, without comment.

Task: Return reported fraction unbound at 4 h, 10 μM; argument: N[C@H](CNC(=O)C1(c2ccc(Cl)cc2)CCCC1)c1ccc(C(=O)Nc2ccncc2)cc1 [CP612]
Result: 0.102

Task: Which fraction unbound at 4 h, 10 μM value belongs to C[C@]12CC[C@H]3[C@@H](CCC4=CC(=O)CC[C@@]43C)[C@@H]1CC[C@@H]2O [Testosterone] ?
Result: 0.0613

---

assay: Pharmacokinetic studies in rats (plasma and brain); format: in vivo; conditions: rat, brain, iv, 40 mg/kg, rat, i.v. 40 mg/kg, 24h, mean all rats; read-out: Brain/Plasma
readoutType: Kp at 24 h
Give your answer as a number; write no unit.

Task: Tell me the measured Kp at 24 h of `N[C@H](CNC(=O)C1(c2ccc(Cl)cc2)CCCC1)c1ccc(C(=O)Nc2ccncc2)cc1` , please.
Result: 9.17

---

What fraction unbound at 4 h, 10 μM was measured for each of the following?
assay: Plasma protein binding, equilibrium dialysis (RED); assay type: in vitro ADME, human; conditions: human, plasma, mean of replicates; read-out: % Free, Mean
Give the figure only, with no unit attached.

Task: Recorded fraction unbound at 4 h, 10 μM for N[C@H](CNC(=O)C1(c2ccc(Cl)cc2)CCCC1)c1ccc(C(=O)Nc2ccncc2)cc1 [CP612] , please?
Result: 0.102

Task: Param item = C[C@]12CC[C@H]3[C@@H](CCC4=CC(=O)CC[C@@]43C)[C@@H]1CC[C@@H]2O [Testosterone] ; retrieve measured fraction unbound at 4 h, 10 μM.
Result: 0.0613

---

assay: Pharmacokinetic studies in rats (plasma and brain); type: in vivo; conditions: rat, plasma, iv, 40 mg/kg, i.v. 40 mg/kg, 8h, individual rat
readoutType: concentration at 8 h (nM)
# value in nM; strip the unit string

Task: Which concentration at 8 h value belongs to `N[C@H](CNC(=O)C1(c2ccc(Cl)cc2)CCCC1)c1ccc(C(=O)Nc2ccncc2)cc1` ?
Result: 1420

---

target: PKCε (Homo sapiens, UniProt Q02156); assay: Lance-FRET kinase assay, PKCε; assay type: biochemical; design: His; AVI; made in house; host or cells: Sf9 cells; details: Figure 1B PKC isozyme panel; read-out: IC50 PKCε
readoutType: pIC50
# log scale: pIC50 equals minus log10 of the concentration in mol/L

Task: What is its pIC50 for PKCε (Homo sapiens, UniProt Q02156)? Entry: `N[C@H](CNC(=O)C1(c2ccc(Cl)cc2)CCCC1)c1ccc(C(=O)Nc2ccncc2)cc1`
Result: 8.69

---

experiment: Pharmacokinetic studies in rats (plasma and brain); format: in vivo; details: rat, plasma, ip; rats, 40 mg/kg i.p.
readoutType: half-life (h)
State just the number; it will be interpreted in h.

Task: I have this compound here, N[C@H](CNC(=O)C1(c2ccc(Cl)cc2)CCCC1)c1ccc(C(=O)Nc2ccncc2)cc1 [CP612] , and I need its recorded half-life.
Result: 6.8

---

test: Pharmacokinetic studies in rats (plasma and brain); format: in vivo; conditions: rat, plasma, ip, 40 mg/kg, i.p. 40 mg/kg, 4h, mean all rats
readoutType: concentration at 4 h (µM)
// return numeric value only (unit: µM, not printed)

Task: Look at this compound and give its reported concentration at 4 h. `N[C@H](CNC(=O)C1(c2ccc(Cl)cc2)CCCC1)c1ccc(C(=O)Nc2ccncc2)cc1`
Result: 5.82

---

assay: Pharmacokinetic studies in rats (plasma and brain); type: in vivo; conditions: rat, plasma, ip, 40 mg/kg, i.p. 40 mg/kg, 15min, mean all rats
readoutType: concentration at 15 min (µM)
The answer is to be given in µM; state only the numeric part.

Task: Field request: concentration at 15 min | item: `N[C@H](CNC(=O)C1(c2ccc(Cl)cc2)CCCC1)c1ccc(C(=O)Nc2ccncc2)cc1`
Result: 21.9

---

assay: Pharmacokinetic studies in rats (plasma and brain); assay type: in vivo; conditions: rat, brain, ip, 40 mg/kg, 40 mg/kg i.p., 2 hours; read-out: Brain/plasma concentration ratio
readoutType: Kp at 2 h
Lab note: jot the number down without any unit.

Task: If you can, please state the reported Kp at 2 h value of `N[C@H](CNC(=O)C1(c2ccc(Cl)cc2)CCCC1)c1ccc(C(=O)Nc2ccncc2)cc1` .
Result: 0.03
